Test system: Rattus norvegicus
Assay protocol: Area under curve (AUC) was determined after oral dosing of 5 mg/kg in rat
Format: ADME, organism-based
Set-up: dose 5 mg/kg, route oral
Cond: in vivo
Experimental endpoint: AUC (ng·h/mL)
Provide the reading as a plain figure in ng·h/mL.

Looking up CN(C)CCCOc1cc(-c2ccccc2)n(-c2ccccc2)n1 , I see its AUC listed as 3.3

Looking up COc1ccc(NC(=O)c2cc(OCCCN(C)C)nn2Cc2ccccc2)cc1 , I see its AUC listed as 61.1

====

Tested on: Rattus norvegicus
Assay protocol: Compound was evaluated for pharmacokinetic parameter was determined after oral dosing of 2 mg/kg in rat
Format: ADME, organism-based
Design: dose 2 mg/kg, route oral
Cond: in vivo
Experimental endpoint: AUC (ng·h/mL)
Provide the reading as a plain figure in ng·h/mL.

Looking up CN(C)CCCOc1cc(-c2ccccc2)n(Cc2ccccc2)n1 , I see its AUC listed as 15.5

Looking up CN(C)CCCOc1nn(-c2ccccc2)c2ccccc12 , I see its AUC listed as 7.9
